The measured values listed here are drawn from the supplement of paper PMC11451515.

# Tested on: SEM cells
# test: cell viability relative to DMSO control; higher = less cytotoxic
# recorded conditions: RPMI 5 mM glucose + 10% FBS; 48 h; 0.0211 µM
quantity: cell viability (%)
Give the number; % is assumed, so skip it.

Answered cases to consult:
compound: Nc1cc(C(F)(F)F)c(-c2cc(N3CCOCC3)nc(N3CCOCC3)n2)cn1
unit name: %
cell viability: 102
//
compound: COC/1=C/C=C2\C(=C/C1=O)[C@H](CCC3=CC(=C(OC)C(=C23)OC)OC)NC(C)=O
unit name: %
cell viability: 15.9
//
compound: CCC(=O)N[C@H]1CC[C@H](C(=O)N(C)c2ccc(-c3nc4ccccc4o3)cc2)C1
unit name: %
cell viability: 89.5

Entry "CC[C@H](C)C(=O)O[C@H]1C[C@H](O)\C=C2\C=C/[C@H](C)[C@H](CC[C@@H](O)C[C@@H](O)CC(O)=O)[C@@H]12" : reported cell viability = ?
124

Query (compound): "N[S+](=O)([O-])c1cccc2c1C(=O)c1cccc(O)c1C2=O" ; field requested: cell viability
68.9

cell viability for "Cc1csc(NC(=O)c2sc3nc4c(c(C(F)(F)F)c3c2N)CCC4)n1" ?
107

// lookup cell viability for "O=C1Nc2ccc(I)cc2/C1=C/c1cc(Br)c(O)c(Br)c1"
112

Please look up its cell viability: "CC(C)C[C@H](NC(=O)CNC(=O)c1cc(Cl)ccc1Cl)B(O)O"
15.2

Fill in the blank: the reported cell viability of "CN[C@@H](C)C(=O)N[C@H]1CN(C(=O)CC(C)C)CC[C@H]2CC[C@@H](C(=O)NC(c3ccccc3)c3ccccc3)N2C1=O" is ____.
110

cell viability lookup needed for "CC[C@]12\C=C/CN3CC[C@]4([C@@H](N(C)C5=CC(=C(C=C45)[C@]6(C[C@H]7C[C@H](CN(C7)CC8=C6[NH]C9=C8C=CC=C9)C(C)(F)F)C(=O)OC)OC)[C@](O)([C@@H]1OC(C)=O)C(=O)OC)[C@H]23" , thanks.
76.9

Requested field: cell viability. Item: "NC(=O)c1cccc2nc(-c3ccc([C@H]4CCCN4)cc3F)[nH]c12"
93.7

Which cell viability reading was recorded for the compound "NC(=O)c1cccc2cn(-c3ccc([C@@H]4CCCNC4)cc3)nc12" ?
110

Which cell viability is reported for this compound? CC/1=C(/C(CC(=O)N1)C2=CC=C(C=C2)C(F)(F)F)C(=O)NC3=C(F)C=C4[NH]N=CC4=C3 (centres undefined)
94.7

What value of measured cell viability is listed for "O=C(Oc1ccc([N+](=O)[O-])cc1)N1CCC(C(O)(c2ccc3c(c2)OCO3)c2ccc3c(c2)OCO3)CC1" ?
93.2

----------
# System: P12-Ichikawa
# test: cell viability relative to DMSO control; higher = less cytotoxic
# recorded conditions: HPLM + 10% dialyzed FBS; 48 h; 5.12 µM
quantity: cell viability (%)
Return type: number; implicit unit %.

compound: CC(O)(C#Cc1ccc2c(c1)N(c1nc(N)ncc1Cl)CC2)c1nccs1 (configuration not stated)
test target: P12-Ichikawa
unit name: %
cell viability: 117
//
compound: OC(=O)C(CC/1=C/C(=O)NC2=CC=CC=C12)NC(=O)C3=CC=C(Cl)C=C3 (configuration not stated)
test target: P12-Ichikawa
unit name: %
cell viability: 122
//
compound: N[S+](=O)([O-])c1cccc2c1C(=O)c1cccc(O)c1C2=O
test target: P12-Ichikawa
unit name: %
cell viability: 105

What is its cell viability for P12-Ichikawa? Entry: "Cc1cnc(C(=O)O)c[n+]1[O-]"
111

API: value(readout=cell viability, system=P12-Ichikawa) for record "Nc1nc(N)c2nc(-c3cccc(O)c3)c(-c3cccc(O)c3)nc2n1"
81.2

Form field: cell viability recorded for "Oc1cccc(-c2nc(N3CCOCC3)c3oc4ncccc4c3n2)c1" with P12-Ichikawa (enter value)
116

Entry "C/C(O)=C(\C#N)C(=O)Nc1cc(Br)ccc1Br" , system P12-Ichikawa: what cell viability was measured?
99.6

For the record "CN(C)CCN(C)C(=O)c1ccc(NC(=O)Nc2ccc(-c3nc(N4CCOCC4)c4ccn(CC(F)(F)F)c4n3)cc2)cc1" , what value of cell viability is listed for P12-Ichikawa?
90.8

Item "CCCCCCOC(=O)/N=C(/N)c1ccc(NCc2nc3cc(C(=O)N(CCC(=O)OCC)c4ccccn4)ccc3n2C)cc1" with P12-Ichikawa - cell viability?
145

What is its cell viability for P12-Ichikawa? Entry: "Nc1ncnc2ccccc12"
105

API: value(readout=cell viability, system=P12-Ichikawa) for record "Cc1cc(Nc2nc(N[C@@H](C)c3ccc(F)cc3)c(C#N)cc2F)n[nH]1"
22.1

// fetch P12-Ichikawa cell viability for "COc1ccc(Nc2nccc(NCCO)n2)cc1"
76.7

----------
# System: SEM cells
# test: cell viability relative to DMSO control; higher = less cytotoxic
# recorded conditions: RPMI 5 mM glucose + 10% FBS; 48 h; 0.00234 µM
Could you mark each record Met if its cell viability falls strictly under 90%, and Not met if it equals or exceeds it?

For orientation, consider the following solved cases.
compound: O=C(O)CCn1c2c(c3ccccc31)C[C@H](N[S+](=O)([O-])c1ccc(F)cc1)CC2
class label: Not met
//
compound: CC(C)c1cc(C(=O)N2Cc3ccc(CN4CCN(C)CC4)cc3C2)c(O)cc1O
class label: Not met
//
compound: O=C(Nc1ncc(-c2cc(C(F)F)nn2-c2c(Cl)cccc2Cl)s1)C1CC1
class label: Not met
//
compound: COC(=O)C1C2CC3c4[nH]c5cc(OC)ccc5c4CCN3CC2CC(OC(=O)c2cc(OC)c(OC)c(OC)c2)C1OC (centres undefined)
class label: Not met
//
compound: COCCOc1nc(-c2ccc(Cl)c(Cl)c2)n(-c2ccc(NC(=O)CCl)cc2)n1
class label: Not met
//
compound: C/C(O)=C(\C#N)C(=O)Nc1cc(Br)ccc1Br
class label: Not met

Decide: cell viability of "COc1cc2c(Nc3ccc(Br)cc3F)ncnc2cc1OCC1CCN(C)CC1" strictly below 90%?
Not met

Take the compound "CC(C)c1cnn2c(NCc3ccccc3)cc(NCCCCCCN)nc12" and say whether its cell viability is less than 90%.
Met

Bench note: check whether "CN1\C(=C(\O)C2=C(C=CC=C2)[S+]1([O-])=O)C(=O)NC3=CC=CC=N3" shows cell viability below 90%
Not met

Report whether reported cell viability is lower than 90% (strictly) for "COc1ccc(Nc2nccc(NCCO)n2)cc1"
Met

Below 90% on cell viability? Entry "Cn1c(=O)n(-c2ccc(C(C)(C)C#N)cc2)c2c3cc(-c4cnc5ccccc5c4)ccc3ncc21"
Met

is_below(cell viability, 90%) for "O=C(O)/C=C/c1ccc(O)c(O)c1" ?
Not met

API: query returns whether the compound falls strictly under 90% in cell viability. Query: "O=C(Oc1ccc([N+](=O)[O-])cc1)N1CCC(C(O)(c2ccc3c(c2)OCO3)c2ccc3c(c2)OCO3)CC1"
Met

Criterion: cell viability strictly below 90%. Is it met by "CC(C)C[C@H](NC(=O)CNC(=O)c1cc(Cl)ccc1Cl)B(O)O" ?
Met

Does the reported cell viability of "CN1\N=C(N)/C2=C[N]([C@@H]3O[C@H](CO[P](O)(O)=O)[C@@H](O)[C@H]3O)C4=C2C1=NC=N4" stay below 90%?
Not met

Determine if "Cc1csc(NC(=O)c2sc3nc4c(c(C(F)(F)F)c3c2N)CCC4)n1" shows cell viability strictly lower than 90%.
Not met

For "COC1=CC=CC(=C1N)\C2=C\C(=O)C3=C(O2)C=CC=C3" , is the recorded cell viability below the cut-off of 90%?
Not met

Please let me know if "Cc1[nH]c(/C=C2\C(=O)Nc3ccccc32)c(C)c1CCC(=O)O" shows cell viability below 90%.
Not met

cell viability strictly < 90% for this compound? "[O-]C(=O)C1=C(C(=C(Cl)C(=C1Cl)Cl)Cl)C/2=C/3\C=C(I)/C(=O)/C(=C3OC4=C2C=C(I)C(=C4I)[O-])I"
Not met

I'd appreciate it if you could check whether "CO/C1=C/C(C)=C\[C@@H](C)[C@@H](O)[C@@H](C)C/C(C)=C\C=C/[C@H](OC)[C@@H]([C@@H](C)[C@@H](O)[C@H](C)[C@@]2(O)C[C@@H](O)[C@H](C)[C@@H](C(C)C)O2)OC1=O" has cell viability smaller than 90%.
Met

Quick check: does "CN(C)CCOc1ccc(-c2nc(-c3ccncc3)c(-c3ccc4c(c3)CC/C4=N\O)[nH]2)cc1" have cell viability under 90%?
Not met

Is cell viability strictly under 90% for the entry CC(O)(C#Cc1ccc2c(c1)N(c1nc(N)ncc1Cl)CC2)c1nccs1 (centres undefined) ?
Met

Given the entry "O=C\1N(N\C=C1[N]2C=CN=N2)C3=NC=NC(=C3)N4CCOCC4" , would its reported cell viability be below 90%?
Not met

Given "CN[C@@H](C)C(=O)N[C@H]1CN(C(=O)CC(C)C)CC[C@H]2CC[C@@H](C(=O)NC(c3ccccc3)c3ccccc3)N2C1=O" , is recorded cell viability strictly lower than 90%?
Not met

I'd appreciate it if you could check whether "Cc1cc(C(=O)N2CCN(c3cccc(Cl)c3)CC2)n(-c2ccccc2)n1" has cell viability smaller than 90%.
Not met
